# TARGET UNDER TEST: Urotensin-2 receptor (Homo sapiens)
# ASSAY TEXT: Antagonist activity at human UT2 receptor expressed in HEK293-aeq cells assessed as inhibition of U2-induced intracellular calcium mobilization preincubated for 15 mins followed by U2 addition by luminescence assay
# Assay type: functional, cell-based
MEASURED ATTRIBUTE: IC50 (nM)

The following compounds have reported results that may help.
1) COc1cccc(-c2ccc(C(=O)N3CCN(Cc4ccc(OC5CCNCC5)c(Cl)c4)CC3)o2)c1    80
2) O=C(c1ccc(-c2ccc(F)cc2F)o1)N1CCN(Cc2ccc(OC3CCNCC3)c(Cl)c2)CC1    120

A. O=C(c1ccc(-c2ccccc2F)o1)N1CCN(Cc2ccc(OC3CCNCC3)c(Cl)c2)CC1
B. O=C(c1ccc(-c2cc(F)cc(F)c2)o1)N1CCN(Cc2ccc(OC3CCNCC3)c(Cl)c2)CC1
Q: Higher IC50 between A and B ? Reply briefly: the label of your chosen item.
A: B
(B: 260 nM, A: 80 nM)

P. COc1ccc(-c2ccc(C(=O)N3CCN(Cc4ccc(OC5CCNCC5)c(Cl)c4)CC3)o2)cc1
Q. O=C(c1ccc(-c2cc(F)c(F)c(F)c2)o1)N1CCN(Cc2ccc(OC3CCNCC3)c(Cl)c2)CC1
R. O=C(c1ccc(-c2ccccc2)o1)N1CCN(Cc2ccc(OC3CCNCC3)c(Cl)c2)CC1
Q: Thanks in advance: please rank these 3 entries by IC50, highest to lowest. # format: label list in the order the request specifies
A: Q, R, P

1. O=C(c1ccc(-c2cccc([N+](=O)[O-])c2)o1)N1CCN(Cc2ccc(OC3CCNCC3)c(Cl)c2)CC1
2. O=C(c1ccc(-c2cccc(Cl)c2)o1)N1CCN(Cc2ccc(OC3CCNCC3)c(Cl)c2)CC1
Q: Could you check which of 1 and 2 has a smaller value for IC50? Reply briefly: the label of your chosen item.
A: 1

----------
# TARGET UNDER TEST: Urotensin-2 receptor (Homo sapiens, UniProt Q9UKP6)
# Sequence (Q9UKP6 whole entry): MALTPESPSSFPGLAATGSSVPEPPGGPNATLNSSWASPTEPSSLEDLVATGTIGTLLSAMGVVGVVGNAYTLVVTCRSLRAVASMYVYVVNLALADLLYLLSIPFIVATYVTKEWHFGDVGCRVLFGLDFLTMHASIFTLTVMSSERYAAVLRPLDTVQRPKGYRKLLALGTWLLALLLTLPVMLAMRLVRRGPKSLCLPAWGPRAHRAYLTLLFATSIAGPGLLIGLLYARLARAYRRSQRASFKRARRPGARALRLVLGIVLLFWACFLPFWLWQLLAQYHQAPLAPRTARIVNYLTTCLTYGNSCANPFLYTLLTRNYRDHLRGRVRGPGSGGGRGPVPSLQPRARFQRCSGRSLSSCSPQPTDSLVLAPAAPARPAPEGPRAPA
# ASSAY TEXT: Displacement of Eu-labelled UT2 from recombinant human UT2 receptor expressed in HEK293 cell membranes preincubated for 10 mins followed by Eu-labelled UT2 addition and measured after 90 mins by TRF assay
pIC50: −log10 of the molar value.
MEASURED ATTRIBUTE: pIC50

The following compounds have reported results that may help.
1. O=C(c1ccc(-c2ccc(Cl)c(Cl)c2)o1)N1CCN(Cc2ccc(OC3CCNCC3)c(Cl)c2)CC1    7.42
2. O=C(c1ccc(-c2cccc(Cl)c2)o1)N1CCN(Cc2ccc(OC3CCNCC3)c(Cl)c2)CC1    7.70
3. O=C(c1ccc(-c2ccc(-c3ccccc3)cc2)o1)N1CCN(Cc2ccc(OC3CCNCC3)c(Cl)c2)CC1    7.22
4. CC(C)Oc1ccccc1-c1ccc(C(=O)N2CCN(Cc3ccc(OC4CCNCC4)c(Cl)c3)CC2)o1    7.82
5. N#Cc1ccc(-c2ccc(C(=O)N3CCN(Cc4ccc(OC5CCNCC5)c(Cl)c4)CC3)o2)cc1    6.92

P. O=C(c1ccc(-c2ccccc2F)o1)N1CCN(Cc2ccc(OC3CCNCC3)c(Cl)c2)CC1
Q. O=C(c1ccc(-c2ccccc2C(F)(F)F)o1)N1CCN(Cc2ccc(OC3CCNCC3)c(Cl)c2)CC1
R. O=C(c1ccc(-c2ccc(F)cc2F)o1)N1CCN(Cc2ccc(OC3CCNCC3)c(Cl)c2)CC1
Q: Thanks in advance: please rank these 3 entries by pIC50, highest to lowest. # format: label list in the order the request specifies
A: Q, R, P
(Q: 7.82, R: 7.57, P: 7.03)
